Method description: in vivo
Set-up: species or system SCID mice
Measurement context: SCID, mouse, iv, 10 pmol peptide, total radioactivity, %ID/g tissue, Stomach
Measurement label: tissue uptake at 24 h (%ID/g)
Express the result in %ID/g but write the number alone.

[ask] Returns the measured tissue uptake at 24 h for the input compound. Input: CSCC[C@H](NC(=O)[C@H](Cc1c[nH]c2ccccc12)NC(=O)CNC(=O)[C@H](Cc1ccc(O)cc1)NC(=O)[C@H](C)NC(=O)[C@@H](CCC(=O)O)NC(=O)[C@@H](CCC(=O)O)NC(=O)[C@@H](CCC(=O)O)NC(=O)[C@@H](CCC(=O)O)NC(=O)[C@@H](CCC(=O)O)NC(=O)[C@@H](CCC(=O)O)NC(=O)CN1CCN(CC(=O)O)CCN(CC(=O)O)CCN(CC(=O)O)CC1)C(=O)N[C@@H](CC(=O)O)C(=O)N[C@@H](Cc1ccccc1)C(N)=O [^111In-CP04, metal not drawn]
[reply] 1.58
